- tested target: δ-opioid receptor (Mus musculus)
- Construct: NG108-15 cell membranes were purchased from Applied Cell Sciences (Rockville, Md.)
- experiment description: [35S]GTPγS δ-opioid receptor functional assay (EC50, relative efficacy, % inhibition)
endpoint label: pEC50
Numbers only, as −log10 of the molar value.

Fill blank: measured pEC50 of the compound `COc1ccc(Oc2cc(-c3ccncc3)ccc2NC[C@@H]2CCCN2)cc1` is ____.
6.32

---

- tested target: δ-opioid receptor (Mus musculus, UniProt P32300)
- Construct: NG108-15 cell membranes were purchased from Applied Cell Sciences (Rockville, Md.)
- Sequence (P32300 whole entry): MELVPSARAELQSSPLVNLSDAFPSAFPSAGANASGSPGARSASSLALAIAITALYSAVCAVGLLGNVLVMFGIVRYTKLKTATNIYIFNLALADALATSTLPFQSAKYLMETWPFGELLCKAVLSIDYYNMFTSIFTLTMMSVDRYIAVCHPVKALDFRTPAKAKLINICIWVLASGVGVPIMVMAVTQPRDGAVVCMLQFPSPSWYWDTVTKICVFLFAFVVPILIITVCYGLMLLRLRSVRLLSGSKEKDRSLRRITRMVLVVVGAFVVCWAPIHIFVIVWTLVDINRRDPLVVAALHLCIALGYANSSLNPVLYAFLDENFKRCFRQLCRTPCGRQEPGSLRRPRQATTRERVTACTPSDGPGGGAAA
- experiment description: [35S]GTPγS δ-opioid receptor functional assay (EC50, relative efficacy, % inhibition)
- Format: biochemical
endpoint label: GTγPS δ-opioid receptor Rel Efficacy
Answers are plain numbers.

# annotated cases, reported GTγPS δ-opioid receptor Rel Efficacy shown
>>> print(df.to_string())
                      smiles_representation  measured_result
0  NC(=O)c1cccc(Oc2cc(-c3ccccc3)ccc2NC[C@@H]2CCCN2)c1           0.2668
1  COc1ccc(Oc2cc(-c3ccncc3)ccc2NC[C@@H]2CCCN2)cc1           0.8323
2  COc1ccc(Oc2cc(-c3cncc(F)c3)ccc2NC[C@@H]2C[C@@H](F)CN2)cc1           1.0217

With those in mind, consider the next compound.
Fill blank: measured GTγPS δ-opioid receptor Rel Efficacy of the compound `CCN(CC)C(=O)/C=C/c1ccc(NC[C@@H]2CCCN2)c(Oc2ccc(OC)cc2)c1` is ____.
0.8328

---

- tested target: delta opioid receptor (Mus musculus)
- Construct: NG108-15 cell membranes were purchased from Applied Cell Sciences (Rockville, Md.); host or cells: NG108-15 cell membranes (purchased)
- experiment description: [35S]GTPγS binding assay in NG108-15 cell membranes (delta opioid functional assay), 200 nM screen
- Type: biochemical
- condition context: 200 nM compound; relative to calculated max of SNC80 dose response
Consider the following compounds; for each one, report its GTPγS δ-RelEfficacy @200 nM.
Answers are plain numbers.

>>> print(df.to_string())
                      smiles_representation               endpoint_label  measured_result
0  COc1ccc(Oc2cc(-c3cncc(F)c3)ccc2NC[C@@H]2CCCN2)cc1  GTPγS δ-RelEfficacy @200 nM             0.43
1  COc1ccc(Oc2cc(-c3cncc(C#N)c3)ccc2NC[C@@H]2C[C@@H](F)CN2)cc1  GTPγS δ-RelEfficacy @200 nM             1.01

State recorded GTPγS δ-RelEfficacy @200 nM for all listed compounds.
1. COc1ccc(Oc2cc(-c3cncc(SC)c3)ccc2NC[C@@H]2C[C@@H](F)CN2)cc1
2. COc1ccc(Oc2cc(-c3cncc(C#N)c3)ccc2NC[C@@H]2CCCN2)cc1
3. COc1ccc(Oc2cc(-c3cncc(F)c3)ccc2NC[C@@H]2C[C@@H](F)CN2)cc1
4. COc1ccc(Oc2cc(-c3cncnc3)ccc2NC[C@@H]2CCCN2)cc1

1. 0.7
2. 0.45
3. 0.78
4. 0.39
